System: human recombinant CB2 receptor (Homo sapiens)
Sequence (P34972 whole entry): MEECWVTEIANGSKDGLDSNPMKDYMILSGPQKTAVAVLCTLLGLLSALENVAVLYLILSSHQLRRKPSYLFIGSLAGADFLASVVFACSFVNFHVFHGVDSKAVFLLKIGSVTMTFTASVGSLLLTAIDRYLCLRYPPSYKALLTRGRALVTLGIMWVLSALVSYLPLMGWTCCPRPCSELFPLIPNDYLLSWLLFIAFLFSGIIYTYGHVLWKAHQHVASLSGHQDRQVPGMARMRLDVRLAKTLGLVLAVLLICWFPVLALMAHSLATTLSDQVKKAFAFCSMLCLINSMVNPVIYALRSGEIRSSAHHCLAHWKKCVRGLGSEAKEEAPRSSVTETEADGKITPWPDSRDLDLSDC
Assay Name: Forskolin-induced cAMP formation in CHO cells over-expressing hCB2
Type: cell-based
Design: expressed in transfected cells; host or cells: CHO cells (stably over-expressing)
Assay Context: forskolin-induced cAMP formation, CHO hCB2; read-out: hCB2 EC50
Measurement Kind: EC50

[[record]]
item_smiles = "CCCCCCc1ccc(O)cc1OCCCCCCCCCCC(=O)NC1CC1"
test_result = "> 10 µM"


---

The following molecules are shown together with reported pKi values.
System: human recombinant CB1 receptor (Homo sapiens)
Sequence (P21554 whole entry): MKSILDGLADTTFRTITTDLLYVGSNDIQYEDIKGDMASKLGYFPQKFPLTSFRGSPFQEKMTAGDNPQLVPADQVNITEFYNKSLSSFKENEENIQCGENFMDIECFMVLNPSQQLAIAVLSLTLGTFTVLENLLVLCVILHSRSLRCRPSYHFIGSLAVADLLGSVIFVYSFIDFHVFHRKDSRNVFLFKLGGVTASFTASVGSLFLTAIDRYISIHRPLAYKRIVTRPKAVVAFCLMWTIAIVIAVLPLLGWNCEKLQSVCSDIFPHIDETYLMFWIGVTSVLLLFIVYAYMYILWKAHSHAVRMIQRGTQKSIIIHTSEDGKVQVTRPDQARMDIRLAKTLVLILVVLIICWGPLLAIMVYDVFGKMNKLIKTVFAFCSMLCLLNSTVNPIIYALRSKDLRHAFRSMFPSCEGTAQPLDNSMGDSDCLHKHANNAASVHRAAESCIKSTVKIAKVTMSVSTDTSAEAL
Type: binding
Parameters: purchased Perkin-Elmer; host or cells: COS cells
pKi: −log10 of the molar value.
Measurement Kind: pKi

[[record]]
molecule = "CCCCCc1cc(O)cc(OCCCCCCCCCCC(=O)NC2CC2)c1 [Compound 25]"
test_result = 8.28

[[record]]
molecule = "CCCCCCc1ccc(O)cc1OCCCCCCCCCCCCCCCC(=O)NC1CC1 [Compound 55]"
test_result = 5.26

[[record]]
molecule = "CCCCCCc1ccc(O)cc1OCCCCCCCCCCC(=O)Nc1ccc(O)cc1 [Compound 53]"
test_result = 5.48

